measured target: T1, thermolysin-cleaved EBOV GP on Jurkat-GP cells (cleaved GP) (Zaire ebolavirus, Makona (GP1 core …, strain))
T1 chain 1: not shown
T1 chain 2: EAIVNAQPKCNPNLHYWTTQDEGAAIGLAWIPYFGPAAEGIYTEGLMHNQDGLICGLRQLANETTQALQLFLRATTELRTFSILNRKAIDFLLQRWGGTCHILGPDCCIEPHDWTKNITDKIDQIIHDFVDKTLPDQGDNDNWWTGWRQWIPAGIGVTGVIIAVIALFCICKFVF
property name: binding result

5.6.c3010 (antibody, V domains shown) VH: EVQLVESGGGLVQPGGSLRLSCAASGLTVSSNYMNWVRQAPGKGLEWVSVIYSGGRTYYADSVKGRFTISRDISKNTVYLEMNSLRADDTAVYYCARIYFFYNGMDVWGQGTTVTVSP VL: EILLTQSPGTLSLSPGERATLSCRASQSVSSNYLAWFQQKPGQAPRLLIYGASSRATGIPDRFSGSGSGTDFTLTISRLEPEDFALYYCQQYGSSPPWTFGQGTKVEMK = binds
5.6.c2957 (antibody, V domains shown) VH: QVRMVQSGAEVKKPGSSVKVSCKTSGGTFSTYSISWVRQAPGHGLEWMGRLIPMLGTPNYAQKFQGRLTITADRSTSTAYMELSSLSSEDTAVYYCARDLGTVLTPGDSWGQGTLVTVSS VL: DIQMTQSPSSLSASVGDRVTITCRASQGISNYLAWFQQKPGEAPKSLIYAASSLQSGVPSKFSGSGSGTDFTLTISNLQPEDFATYYCQQYNSYPLTFGGGTKVEIK = binds
5.6.c3197 (antibody, V domains shown) VH: QVQVVESGGGVVQPGKSLRLSCAASGFTFSSYGMHWVRQAPGKGLEWVAFIAYDGSNEYYADSVKGRFTISRDNSKITLYLQMNSLRAEDTAMYYCAKEGAGHDALYYYGMDVWGQGTTVTVSS VL: DIQMTQSPSSVSASVGDRVTITCRASQGISFWLAWYQQKPGKAPELLISAASSLQSGVPSRFSGSGSGTDFTLTISSLQPEDFATYYCLQAHSFPYTFGQGTKLEIK = binds

Reference source: paper PMC6908968
